# MIC values compiled below
tested on: STREPTOCOCCUS PYOGENES PIU 2548; experiment: In vitro antibacterial activity, MIC, BHI agar dilution; assay type: cell-based; settings: S. pyogenes PIU 2548, unit assumed

compound	MIC (µg/mL)
CC[C@H]1OC(=O)[C@H](C)C(=O)[C@H](C)[C@@H](O[C@@H]2O[C@H](C)C[C@H](N(C)C)[C@H]2O)[C@](C)(OC)C[C@@H](C)C2=NC3CN(S(=O)(=O)Cc4ccccc4[N+](=O)[O-])CC3N3C(=O)O[C@@]1(C)[C@H]3[C@H]2C (stereo partly drawn)	3.1
CC[C@H]1OC(=O)[C@H](C)C(=O)[C@H](C)[C@@H](O[C@@H]2O[C@H](C)C[C@H](N(C)C)[C@H]2O)[C@](C)(OC)C[C@@H](C)C2=NC[C@@H](COCc3ccccc3)N3C(=O)O[C@@]1(C)[C@H]3[C@H]2C	0.39
CCOC(=O)CCN1CC2N=C3C(C)CC(C)(OC)C(OC4OC(C)CC(N(C)C)C4O)C(C)C(=O)C(C)C(=O)OC(CC)C4(C)OC(=O)N(C2C1)C4C3C (stereo not drawn)	6.2
CC[C@H]1OC(=O)[C@H](C)C(=O)[C@H](C)[C@@H](O[C@@H]2O[C@H](C)C[C@H](N(C)C)[C@H]2O)[C@](C)(OC)C[C@@H](C)C2=NC3CN(CC(OC)OC)CC3N3C(=O)O[C@@]1(C)[C@H]3[C@H]2C (stereo partly drawn)	1.56
CC[C@H]1OC(=O)[C@H](C)C(=O)[C@H](C)[C@@H](O[C@@H]2O[C@H](C)C[C@H](N(C)C)[C@H]2O)[C@](C)(OC)C[C@@H](C)C2=NC[C@H](CCCc3ccccc3)N3C(=O)O[C@@]1(C)[C@H]3[C@H]2C	0.2
CC[C@H]1OC(=O)[C@H](C)C(=O)[C@H](C)[C@@H](O[C@@H]2O[C@H](C)C[C@H](N(C)C)[C@H]2O)[C@](C)(OC)C[C@@H](C)C2=NCC(CN(C)Cc3ccccc3)N3C(=O)O[C@@]1(C)[C@H]3[C@H]2C (stereo partly drawn)	0.78
CC[C@H]1OC(=O)[C@H](C)C(=O)[C@H](C)[C@@H](O[C@@H]2O[C@H](C)C[C@H](N(C)C)[C@H]2O)[C@](C)(OC)C[C@@H](C)C2=N[C@H](COCc3ccc(C(=O)OC)cc3)CN3C(=O)O[C@@]1(C)[C@H]3[C@H]2C	0.2
CCC1OC(=O)C(C)C(=O)C(C)C(OC2OC(C)CC(N(C)C)C2O)C(C)(OC)CC(C)C2=NCC(C)(CN(C)C)N3C(=O)OC1(C)C3C2C (stereo not drawn)	1.56
CC[C@H]1OC(=O)[C@H](C)C(=O)[C@H](C)[C@@H](O[C@@H]2O[C@H](C)C[C@H](N(C)C)[C@H]2O)[C@](C)(OC)C[C@@H](C)C2=N[C@@H]3CNC[C@@H]3N3C(=O)O[C@@]1(C)[C@H]3[C@H]2C	0.78
